This collection of values is drawn from patent US20250388565A1.

TARGET_ENTITY: ERα protein (HiBiT-tagged) in ESR1_HiBiT KI MCF7 cells (Homo sapiens)
Sequence (P03372 1-595): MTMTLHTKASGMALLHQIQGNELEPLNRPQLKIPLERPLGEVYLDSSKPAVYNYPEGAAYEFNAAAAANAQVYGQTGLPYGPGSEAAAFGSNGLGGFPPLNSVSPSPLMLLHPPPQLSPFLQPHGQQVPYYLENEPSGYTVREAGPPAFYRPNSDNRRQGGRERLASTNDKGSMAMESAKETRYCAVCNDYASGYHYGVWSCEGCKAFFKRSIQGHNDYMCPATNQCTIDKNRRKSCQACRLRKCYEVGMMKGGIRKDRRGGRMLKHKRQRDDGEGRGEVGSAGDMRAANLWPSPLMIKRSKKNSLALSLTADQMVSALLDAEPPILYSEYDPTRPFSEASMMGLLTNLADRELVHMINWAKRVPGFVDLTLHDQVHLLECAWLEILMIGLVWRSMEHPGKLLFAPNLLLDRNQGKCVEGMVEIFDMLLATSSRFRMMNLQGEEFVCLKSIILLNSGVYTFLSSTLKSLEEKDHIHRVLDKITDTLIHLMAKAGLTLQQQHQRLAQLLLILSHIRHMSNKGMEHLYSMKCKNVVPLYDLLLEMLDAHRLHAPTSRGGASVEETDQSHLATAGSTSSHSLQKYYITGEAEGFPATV
ASSAY_COMMENT: Nano Glo HiBiT Lytic Degradation Assay
Format: cell-based
DETAILS: 6 hours with compound, 14-point dose response 1:3, bell-shape curve fit, half-maximal effect of first Hill model, read-out: MCF7 ESR1 HiBiT - (DC50)
RECORDED_ENDPOINT: log10 of DC50 (log10 of the value in nM)
Answers are given as log10 of DC50 in nM.

Some compounds with recorded log10 of DC50:
# COMPOUND, log10 of DC50
measured = [
    ("O=C1CC[C@H](N2Cc3cc(N4CCN(CC5CCN(c6ccc([C@@H]7c8ccc(O)cc8CC[C@@H]7c7ccccc7)cn6)CC5)CC4)ccc3C2=O)C(=O)N1", -0.17),
    ("C[C@]1(c2ccccc2)CCc2cc(O)ccc2[C@@H]1c1ccc(N2CCC(CN3CCN(c4ccc5c(c4)CN([C@H]4CCC(=O)NC4=O)C5=O)CC3)CC2)cc1", 1.92),
    ("O=C1CC[C@@H](c2ccc(N3CCC4(CCN(CC5CCN(c6ccc([C@@H]7c8ccc(O)cc8C(F)(F)C[C@@H]7c7ccccc7)cc6)CC5)C4)CC3)cc2)C(=O)N1 (single isomer, unassigned)", 1.96),
    ("O=C1CC[C@H](N2Cc3cc(N4CCN(CC5CCN(c6ccc([C@@H]7c8ccc(O)cc8C(F)(F)C[C@@H]7c7ccccc7)cc6F)CC5)CC4)ccc3C2=O)C(=O)N1", -0.39),
]

Now turn to the next compound.
Supply measured log10 of DC50 of C[C@@H](C1CCN(c2ccc([C@@H]3c4ccc(O)cc4CC[C@@H]3c3ccccc3)cc2)CC1)N1CCN(c2ccc3c(c2)CN(C2CCC(=O)NC2=O)C3=O)CC1 (single isomer, unassigned) in your reply.
0.70
